Tested on: oilseed rape (Brassica napus)
Experiment: Test C postemergence
Assay type: in vivo
Conditions: 125 g ai/ha, scale 0 to 100, 0 is no effect, 100 is complete control
Description: […]
RECORDED_METRIC: Plant response rating, Oilseed Rape
// return just the number, without any unit appended

Below, 3 molecules whose answers are already recorded.
O=c1cccc(Oc2ncc(Cl)cn2)n1-c1ccc(C(F)(F)F)cn1 [Compound 7] = 35
O=c1cccc(Oc2ncc(Cl)cn2)n1-c1ncc(Cl)cn1 [Compound 6] = 10
O=c1cccc(Oc2ncc(Cl)cn2)n1-c1ccc(C(F)(F)F)cc1 [Compound 10] = 80

Short answer on oilseed rape (Brassica napus) for O=c1cccc(Oc2ncc(Cl)cn2)n1-c1ccc(Cl)cc1 [Compound 1] , Plant response rating, Oilseed Rape: 80

Cited source for all entries: patent US9963442B2
